// compounds with pIC50 on human mPGES-1 (Homo sapiens, UniProt O14684), multi-source literature
Sequence (O14684 whole entry): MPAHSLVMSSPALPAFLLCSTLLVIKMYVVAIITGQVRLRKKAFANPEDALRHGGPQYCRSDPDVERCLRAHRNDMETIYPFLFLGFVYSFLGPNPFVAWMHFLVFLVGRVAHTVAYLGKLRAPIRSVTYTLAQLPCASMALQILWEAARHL
pIC50: −log10 of the molar value.

{"smiles-repr": "NS(=O)(=O)c1ccccc1NS(=O)(=O)c1ccc2c(c1)CCCC2", "pIC50": 5.92}
{"smiles-repr": "O=C(NCc1ccc(Cl)c(-c2nc(O)nc(-c3ccc(OCC4CC4)cc3)n2)c1)C1(C(F)(F)F)CC1", "pIC50": 9.00}
{"smiles-repr": "NS(=O)(=O)c1cc(Oc2ccccc2)ccc1NS(=O)(=O)c1cccc(-c2ccc(Cl)c(Cl)c2)c1", "pIC50": 5.01}
{"smiles-repr": "Cc1ccc(-n2c(C(=O)O)cc3sc(-c4ccc(OC(C)C)cc4)cc32)cc1[N+](=O)[O-]", "pIC50": 5.29}
{"smiles-repr": "NS(=O)(=O)c1ccccc1S(=O)(=O)NC(=O)c1ccc(C#Cc2ccccc2)nc1", "pIC50": 6.92}
{"smiles-repr": "CCCC1(CCC)CN(Cc2ccc(Cl)c(-c3nc(O)nc(-c4ccccc4)n3)c2)C1=O", "pIC50": 6.83}
{"smiles-repr": "COc1cc(C(=O)NS(=O)(=O)c2ccccc2S(N)(=O)=O)ccc1C#Cc1ccc(F)cc1", "pIC50": 7.80}
{"smiles-repr": "NS(=O)(=O)c1ccc(F)cc1NS(=O)(=O)/C=C/c1ccc(Cl)cc1", "pIC50": 6.46}

* * *

Study the reported IC50 values for human mPGES-1 (Homo sapiens) given below; they originate from different publications.
experimental-endpoint: IC50 (nM)

{"smiles-repr": "COC(C)(C)C(=O)NCc1ccc(Cl)c(-c2nc(O)nc(-c3ccccc3)n2)c1", "test-system": "human mPGES-1 (Homo sapiens)", "result": 4.5}
{"smiles-repr": "Cc1ccnc(COc2cccc(C(F)(F)F)c2-c2nc(O)nc(-c3ccc(C#Cc4ccccc4)cc3)n2)c1", "test-system": "human mPGES-1 (Homo sapiens)", "result": 5.1}
{"smiles-repr": "NS(=O)(=O)c1ccccc1S(=O)(=O)NC(=O)c1ccc(C#Cc2ccc(C(F)(F)F)cc2)cc1", "test-system": "human mPGES-1 (Homo sapiens)", "result": 5.7}
{"smiles-repr": "NS(=O)(=O)c1ccccc1S(=O)(=O)NC(=O)c1cnc(C#Cc2ccc(Cl)cc2)nc1", "test-system": "human mPGES-1 (Homo sapiens)", "result": 53}
{"smiles-repr": "CC(C)c1cc(-c2nc(O)nc(-c3cc(CNC(=O)C(C)(C)C(F)(F)F)ccc3Cl)n2)ccc1C(F)(F)F", "test-system": "human mPGES-1 (Homo sapiens)", "result": 9}
{"smiles-repr": "COc1ccc(Cl)cc1-c1cccc(S(=O)(=O)Nc2ccccc2S(N)(=O)=O)c1", "test-system": "human mPGES-1 (Homo sapiens)", "result": 2600}
{"smiles-repr": "O=C(NCc1ccc(Cl)c(-c2nc(O)nc(-c3cccc(C4CC4)c3)n2)c1)C1(C(F)(F)F)CC1", "test-system": "human mPGES-1 (Homo sapiens)", "result": 1.4}

* * *

Here's a roundup of pIC50 values tested on human mPGES-1 (Homo sapiens, UniProt O14684), taken from various published works.
pIC50: −log10 of the molar value.
The label depends only on pIC50: T if it is at least 7, F if it is smaller.

{"molecule": "Cc1c(CO)ccc(Cl)c1-c1nc(O)nc(-c2ccc(C(F)(F)F)cc2)n1", "category-label": "T"}
{"molecule": "CCC1(CC)CN(Cc2ccc(Cl)c(-c3nc(O)nc(-c4ccccc4)n3)c2)C1=O", "category-label": "T"}
{"molecule": "NS(=O)(=O)c1ccccc1S(=O)(=O)NC(=O)c1ccc(C#Cc2ccc(F)cc2)cc1", "category-label": "T"}
{"molecule": "Cc1cc(-c2nc(O)nc(-c3cc(CNC(=O)C(C)(C)C(F)(F)F)ccc3Cl)n2)ccc1C(F)(F)F", "category-label": "T"}
{"molecule": "NS(=O)(=O)c1ccccc1S(=O)(=O)NC(=O)c1ccc(F)c(Br)c1", "category-label": "F"}
{"molecule": "O=C(NCc1ccc(Cl)c(-c2nc(O)nc(-c3ccccc3)n2)c1)C12CC3CC(CC(C3)C1)C2", "category-label": "T"}
{"molecule": "COc1ccccc1/C=C/S(=O)(=O)Nc1c(F)cccc1S(N)(=O)=O", "category-label": "F"}
{"molecule": "Oc1cccc(COc2cccc(C(F)(F)F)c2-c2nc(O)nc(-c3ccc(C#Cc4ccccc4)cc3)n2)n1", "category-label": "T"}
{"molecule": "CC1(C(=O)NCc2ccc(Cl)c(C(=O)Nc3ccc4oc(-c5ccc(C(F)(F)F)cc5)nc4c3)c2)CC1", "category-label": "T"}
{"molecule": "CNS(=O)(=O)c1ccc2c(c1)-c1cc(S(=O)(=O)Nc3ccccc3S(N)(=O)=O)ccc1S2(=O)=O", "category-label": "F"}
{"molecule": "CC(C)OC(=O)NCc1ccc(Cl)c(-c2nc(O)nc(-c3cccc(C(C)(C)C)c3)n2)c1", "category-label": "T"}
{"molecule": "CN(C)C(=O)COc1cccc(Cl)c1-c1nc(O)nc(-c2ccc(OCC3CC3)cc2)n1", "category-label": "F"}
{"molecule": "Cc1cccc(COc2cccc(C(F)(F)F)c2-c2nc(O)nc(-c3ccc(C#Cc4ccccc4Cl)cc3)n2)n1", "category-label": "T"}
{"molecule": "CC(C)C#Cc1ccc(C(=O)NS(=O)(=O)c2ccccc2S(N)(=O)=O)cc1OCC(F)F", "category-label": "T"}
{"molecule": "COCc1ccc(Cl)c(-c2nc(O)nc(-c3ccc(C(F)(F)F)cc3)n2)c1", "category-label": "F"}
{"molecule": "NS(=O)(=O)c1ccccc1NS(=O)(=O)CCc1ccc(F)cc1OCC1CCOCC1", "category-label": "T"}
{"molecule": "Cc1cccc(C)c1-c1nc(O)nc(-c2ccc(C(C)(C)C)cc2)n1", "category-label": "F"}
{"molecule": "CN(Cc1ccc(Cl)c(-c2nc(O)nc(-c3ccccc3)n2)c1)C(=O)C1CCCC1", "category-label": "F"}
{"molecule": "CC(C)Oc1cc(C(=O)NS(=O)(=O)c2ccccc2S(N)(=O)=O)cnc1C#CC1CC1", "category-label": "T"}
{"molecule": "CCCC(C)C#Cc1ccc(C(=O)NS(=O)(=O)c2ccccc2S(N)(=O)=O)cc1OCCOCC(F)(F)F (stereo not shown)", "category-label": "T"}
{"molecule": "CSc1nc2c(C(=O)Nc3cccc(Cl)c3C)cc(NC(=O)c3ccccc3C(F)(F)F)cc2[nH]1", "category-label": "T"}
{"molecule": "NS(=O)(=O)c1cc(CO)ccc1NS(=O)(=O)CCc1ccc(Cl)cc1OCC1CCOCC1", "category-label": "T"}
{"molecule": "Cn1cnc2c(C(=O)NCc3ccccc3C(F)(F)F)cc(NC(=O)c3ccccc3C(F)(F)F)cc21", "category-label": "T"}
{"molecule": "Cc1ccc(Cl)c(-c2nc(O)nc(-c3ccc(C(F)(F)F)cc3)n2)c1OCCO", "category-label": "F"}
{"molecule": "CC1(C)CCC(Oc2ccc(-c3nc(O)nc(-c4c(Cl)cccc4OCc4ccccn4)n3)cc2)CC1", "category-label": "T"}
{"molecule": "NS(=O)(=O)c1ccccc1S(=O)(=O)NC(=O)c1ccc(-c2cc3ccccc3o2)c(OCC(F)F)c1", "category-label": "T"}
{"molecule": "Cc1cc(-c2nc(O)nc(-c3cc(CNC(=O)C4(C(F)(F)F)CCC4)ccc3Cl)n2)ccc1F", "category-label": "T"}
{"molecule": "CC(CS(=O)(=O)Nc1ccccc1S(N)(=O)=O)c1ccc(Cl)cc1 (stereo not shown)", "category-label": "F"}
{"molecule": "CCC1(COc2ccc(-c3nc(O)nc(-c4cc(CNC(=O)C(C)(C)C(F)(F)F)ccc4Cl)n3)cc2)COC1", "category-label": "T"}
